system: HPPD polypeptides; test: coupled HPPD activity assay: turnover and residual turnover in crude extracts; assay type: biochemical, Pseudomonas fluorescens; details: 100 μM Cmpd. 1; signal change with inhibitor divided by signal change without inhibitor
ASSAY_READOUT: Residual turnover [%] (%)
Expressed in %, but write only the number.

Form field: reported Residual turnover [%] of 68 (protein, mutant HPPD polypeptide) MADLYENPMGLMGFEFIEFASPTPGTLEPIFEIMGFTKVATHRSKNVHLYRQGEINLILNNEPNSIASYFAAEHGPSVCGMAFRVKDSQKAYNRALELGAQPIHIDTGPMELNLPAIKGIGGAPLYLIDRFGEGSSIYDIDFVYLEGVERNPVGAGLKVIDHLTHNVYRGRMVYWANFYEKLFNFREARYFDIKGEYTGLTSKAMSAPDGMIRIPLNEESSKGAGQIEEFLMQFNGEGIQHVAFLTDDLVKTWDALKKIGMRFMTAPADSYYEMLEGRLPDHGEPVDQLQARGILLDGSSVEGDKRLLLQIFSEQLMGPVFFEFIQRKGDDGFGPHSFKVLFEQMERDQVRRGVLTAD
64

The reported measurements were obtained from patent US11180770B2.
